B1: SFRS1 (parent)
chain: RDIDLKNRRGGPPFAFVEFEDPRD

# Variants of: B1
# Test description: protein stability index of a GFP-peptide fusion (GPS, HEK-293T) (PSI 1-6); higher = more stable;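 note: lentivirally expressed fusions sorted by FACS into six bins by GFP to DsRed ratio, PSI derived from sequencing read proportions per bin multiplied by bin number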
# Measurement conditions: c terminus: a fixed tail appended
Quick reference: protein stability index of the listed items.
Give the figure by itself; no unit, no explanation.

# Item sequence, protein stability index
data = [
    ("RDIDLKNRRGGPPFAIVEFEDPRD [F16I]", 4.36),
    ("RFIDLKNRRGGPPFAFVEFEDPRD [D2F]", 2.91),
    ("RDIDLKNRRGGPPFAEVEFEDPRD [F16E]", 5.2),
    ("RDIDLKNRRGGPPFAFVEFENPRD [D21N]", 3.38),
    ("RDIDLKNRRGGPPFFFVEFEDPRD [A15F]", 3.12),
    ("RDIDLKNRRGGPPFAFVEFEDPRF [D24F]", 2.15),
    ("RQIDLKNRRGGPPFAFVEFEDPRD [D2Q]", 3.25),
    ("RDIRLKNRRGGPPFAFVEFEDPRD [D4R]", 3.45),
]

Enquiry: What value of measured protein stability index is listed for RDWDLKNRRGGPPFAFVEFEDPRD [I3W] ?
Return: 3.95

Enquiry: Please give the result for RDIDLKNRRGGPPFAFVTFEDPRD [E18T] too.
Return: 2.74

Enquiry: Please give the result for RDIDLKNRRGGPPFAFVEFEDPKD [R23K] too.
Return: 4.14
